assay: Inhibition of Cytochrome P450; type: ADME
pIC50: −log10 of the molar value.
Measure: pIC50

### Prompt Given the entry CC#CCn1c(N2CCCNCC2)c(C#N)c2c1c(=O)n(Cc1c(C#N)cnc3ccccc13)c(=O)n2C , report its measured pIC50.
### Response < 5.00

---

assay: Cmax in rat; assay type: ADME, organism-based; settings: in vivo
Measure: Cmax (nM)
Give the value in nM but do not write nM after it.

### Prompt Given the entry CC#CCn1c(N2CCC[C@@H](N)C2)nc2c1c(=O)n(Cc1nc(C)c3ccccc3n1)c(=O)n2C , report its measured Cmax.
### Response 21

---

assay: Permeability from apical side to basal side of human Caco2 cells; settings: Caco-2
Measure: Papp A→B (×10⁻⁶ cm/s)

1) CC#CCn1c(N2CCCNCC2)c(C#N)c2ncn(Cc3ncc4ccccc4n3)c(=O)c21	0.6

A. CC#CCn1c(N2CCCNCC2)c(C#N)c2ncn(Cc3nc(C)c4ccccc4n3)c(=O)c21
B. CC#CCn1c(N2CCC[C@@H](N)C2)nc2c1c(=O)n(Cc1nc(C)c3ccccc3n1)c(=O)n2C
### Prompt Of the two listed items, which has the higher Papp A→B? First: A Second: B Give the label of your selection.
### Response A

---

experiment: Oral bioavailability in rat; assay type: ADME, organism-based; conditions: in vivo
Measure: bioavailability (%)
Give the value in % but do not write % after it.

### Prompt Given the entry CC#CCn1c(N2CCC[C@@H](N)C2)nc2c1c(=O)n(Cc1nc(C)c3ccccc3n1)c(=O)n2C , report its measured bioavailability.
### Response 9

---

experiment: Intrinsic clearance in rat liver microsome; assay type: ADME; conditions: liver microsomes, read-out: CLH
Measure: CLint scaled (mL/min/kg)
Give the value in mL/min/kg but do not write mL/min/kg after it.

### Prompt Given the entry CC(C)=CCn1c(N2CCC[C@H](N)C2)c(C#N)c2ncn(Cc3ncc4ccccc4n3)c(=O)c21 , report its measured CLint scaled.
### Response 67

---

assay: Clearance in rat at 1 mg/kg, iv; type: ADME, organism-based; design: dose 1 mg/kg, route intravenous; conditions: in vivo
Measure: clearance (mL/min/kg)
Give the value in mL/min/kg but do not write mL/min/kg after it.

### Prompt Given the entry CC#CCn1c(N2CCC[C@@H](N)C2)nc2c1c(=O)n(Cc1nc(C)c3ccccc3n1)c(=O)n2C [LINAGLIPTIN] , report its measured clearance.
### Response 34

---

test: AUC in rat; type: ADME, organism-based; settings: plasma
Measure: AUC (µM·h)
Give the value in µM·h but do not write µM·h after it.

### Prompt Given the entry CC#CCn1c(N2CCC[C@@H](N)C2)nc2c1c(=O)n(Cc1nc(C)c3ccccc3n1)c(=O)n2C , report its measured AUC.
### Response 0.185

---

Read-out record for UniProt:Q12809: IC50
Give the value in µM but do not write µM after it.

Known IC50 results, listed for orientation:
1) Cn1c(=O)n(Cc2nccc3ccccc23)c(=O)c2c1c(C#N)c(N1CCC[C@H](N)C1)n2Cc1ccccc1	2.8
2) CC#CCn1c(N2CCC[C@@H](N)C2)c(C#N)c2c1c(=O)n(Cc1nc(C)c3ccccc3n1)c(=O)n2C	21.7
3) CC(C)=CCn1c(N2CCC[C@H](N)C2)c(C#N)c2c1c(=O)n(Cc1nc(C)c3ccccc3n1)c(=O)n2C	6.7

### Prompt Return IC50 measured with UniProt:Q12809 given this compound: CC(C)=CCn1c(N2CCC[C@H](N)C2)c(C#N)c2c1c(=O)n(Cc1ncccc1C#N)c(=O)n2C
### Response 16.9

---

The entries below come with measured pIC50 values attached.
molecular target: Voltage-gated inwardly rectifying potassium channel KCNH2 (Homo sapiens, UniProt Q12809)
Sequence (Q12809 whole entry): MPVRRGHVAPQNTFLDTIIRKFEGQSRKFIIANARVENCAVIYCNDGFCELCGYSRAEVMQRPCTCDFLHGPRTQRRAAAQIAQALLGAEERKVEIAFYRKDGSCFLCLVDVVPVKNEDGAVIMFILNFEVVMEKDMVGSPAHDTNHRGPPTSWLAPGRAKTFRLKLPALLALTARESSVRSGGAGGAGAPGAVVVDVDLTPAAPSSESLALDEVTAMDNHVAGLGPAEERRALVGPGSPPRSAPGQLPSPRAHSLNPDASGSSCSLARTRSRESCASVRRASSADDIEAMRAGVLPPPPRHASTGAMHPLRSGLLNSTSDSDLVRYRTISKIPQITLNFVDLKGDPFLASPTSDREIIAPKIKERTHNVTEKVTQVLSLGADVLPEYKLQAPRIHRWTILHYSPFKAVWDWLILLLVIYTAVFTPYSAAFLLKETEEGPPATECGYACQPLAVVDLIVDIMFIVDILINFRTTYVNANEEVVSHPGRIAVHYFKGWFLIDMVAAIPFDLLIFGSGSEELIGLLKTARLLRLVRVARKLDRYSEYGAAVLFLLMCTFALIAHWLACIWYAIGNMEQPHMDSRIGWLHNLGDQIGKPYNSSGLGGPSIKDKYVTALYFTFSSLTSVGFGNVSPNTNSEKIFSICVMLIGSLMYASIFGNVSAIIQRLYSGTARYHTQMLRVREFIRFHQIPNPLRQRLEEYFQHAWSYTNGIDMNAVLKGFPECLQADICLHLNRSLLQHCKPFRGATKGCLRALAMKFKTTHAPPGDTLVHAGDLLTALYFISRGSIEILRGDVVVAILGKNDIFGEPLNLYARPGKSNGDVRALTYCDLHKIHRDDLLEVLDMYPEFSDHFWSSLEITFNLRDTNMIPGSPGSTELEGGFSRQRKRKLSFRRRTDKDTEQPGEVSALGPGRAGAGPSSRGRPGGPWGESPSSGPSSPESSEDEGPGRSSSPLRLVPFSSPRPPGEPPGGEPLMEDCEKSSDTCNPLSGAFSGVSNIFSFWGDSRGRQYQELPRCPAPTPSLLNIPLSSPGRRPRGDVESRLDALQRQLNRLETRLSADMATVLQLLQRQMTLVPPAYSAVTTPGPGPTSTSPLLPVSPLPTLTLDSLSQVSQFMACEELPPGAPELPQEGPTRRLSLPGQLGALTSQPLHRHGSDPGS
In simple prose, pIC50 is minus the logarithm base ten of a concentration in moles per litre.

1. CC#CCn1c(N2CCCNCC2)c(C#N)c2c1c(=O)n(Cc1ncc3ccccc3c1C#N)c(=O)n2C	4.92
2. CC#CCn1c(N2CCC[C@H](N)C2)c(C#N)c2c1c(=O)n(Cc1nccc3ccccc13)c(=O)n2C	4.55
3. COc1cccc(C(=O)Cn2c(=O)c3c(c(C#N)c(N4CCC[C@H](N)C4)n3CC=C(C)C)n(C)c2=O)c1	5.80
4. CC(C)=CCn1c(N2CCCNCC2)c(C#N)c2c1c(=O)n(Cc1c(C#N)cnc3ccccc13)c(=O)n2C	6.05
5. CC(C)=CCn1c(N2CCCNCC2)c(C#N)c2c1c(=O)n(Cc1ncc3ccccc3c1C#N)c(=O)n2C	5.74

### Prompt Return pIC50 measured with Voltage-gated inwardly rectifying potassium channel KCNH2 (Homo sapiens, UniProt Q12809) given this compound: COc1cccc(C(=O)Cn2c(=O)c3c(c(C#N)c(N4CCCNCC4)n3CC=C(C)C)n(C)c2=O)c1
### Response 5.96
